# protocol: Prodrug conversion in acetate buffer assessed as half-life for hydrolysis at pH 5
# Assay type: physicochemical
measure: t1/2
Could you give the number and then its unit, please?

| compound | t1/2 |
| --- | --- |
| COc1ccc2cc(C(C)C(=O)OCC(OC(C)=O)C(OC(C)=O)C(OC(C)=O)C(/C=N/[C@@H](Cc3ccc(O)cc3)C(=O)O)OC(C)=O)ccc2c1 (stereo partly specified) | 50 h |
| COc1ccc2cc(C(C)C(=O)OCC(OC(C)=O)C(OC(C)=O)C(OC(C)=O)C(/C=N/[C@@H](Cc3c[nH]c4ccccc34)C(=O)O)OC(C)=O)ccc2c1 (stereo partly specified) | 57 h |
| COc1ccc2cc(C(C)C(=O)OCC(OC(C)=O)C(OC(C)=O)C(OC(C)=O)C(/C=N/CC(=O)O)OC(C)=O)ccc2c1 (stereo unspecified) | 88 h |

I have 2 compounds here; please give me t1/2 for each one.
1. COc1ccc2cc(C(C)C(=O)OCC(OC(C)=O)C(OC(C)=O)C(OC(C)=O)C(/C=N/[C@@H](C)C(=O)O)OC(C)=O)ccc2c1 (stereo partly specified)
2. COc1ccc2cc(C(C)C(=O)OCC(OC(C)=O)C(OC(C)=O)C(OC(C)=O)C(/C=N/[C@H](C(=O)O)C(C)C)OC(C)=O)ccc2c1 (stereo partly specified)

1: 77 h; 2: 88 h

Memo: COc1ccc2cc(C(C)C(=O)OCC(OC(C)=O)C(OC(C)=O)C(OC(C)=O)C(/C=N/[C@@H](CS)C(=O)O)OC(C)=O)ccc2c1 (stereo partly specified) , reported t1/2: 77 h

====

What t1/2 was measured for each of the following?
# protocol: Prodrug conversion in phosphate buffer assessed as half-life for hydrolysis at pH 7.4
# Type: physicochemical
One number for each entry, in h.

I have 2 compounds here; please give me t1/2 for each one.
1. COc1ccc2cc(C(C)C(=O)OCC(OC(C)=O)C(OC(C)=O)C(OC(C)=O)C(/C=N/[C@@H](CS)C(=O)O)OC(C)=O)ccc2c1 (stereo partly specified)
2. COc1ccc2cc(C(C)C(=O)OCC(OC(C)=O)C(OC(C)=O)C(OC(C)=O)C(/C=N/[C@H](C(=O)O)C(C)C)OC(C)=O)ccc2c1 (stereo partly specified)

1: 30; 2: 19

====

What t1/2 was measured for each of the following?
# protocol: Prodrug conversion in acetate buffer assessed as half-life for hydrolysis at pH 4
# Assay type: physicochemical
Give bare numbers, in h.

Please review the following examples before continuing.
| compound | unit-of-measurement | result |
| --- | --- | --- |
| COc1ccc2cc(C(C)C(=O)OCC(OC(C)=O)C(OC(C)=O)C(OC(C)=O)C(/C=N/[C@@H](CS)C(=O)O)OC(C)=O)ccc2c1 (stereo partly specified) | h | 15 |
| COc1ccc2cc(C(C)C(=O)OCC(OC(C)=O)C(OC(C)=O)C(OC(C)=O)C(/C=N/[C@@H](Cc3c[nH]c4ccccc34)C(=O)O)OC(C)=O)ccc2c1 (stereo partly specified) | h | 115 |
| COc1ccc2cc(C(C)C(=O)OCC(OC(C)=O)C(OC(C)=O)C(OC(C)=O)C(/C=N/[C@@H](Cc3ccc(O)cc3)C(=O)O)OC(C)=O)ccc2c1 (stereo partly specified) | h | 67 |
| COc1ccc2cc(C(C)C(=O)OCC(OC(C)=O)C(OC(C)=O)C(OC(C)=O)C(/C=N/[C@H](C(=O)O)C(C)C)OC(C)=O)ccc2c1 (stereo partly specified) | h | 115 |
| COc1ccc2cc(C(C)C(=O)OCC(OC(C)=O)C(OC(C)=O)C(OC(C)=O)C(/C=N/CC(=O)O)OC(C)=O)ccc2c1 (stereo unspecified) | h | 44 |

Field: next compound
Memo: COc1ccc2cc(C(C)C(=O)OCC(OC(C)=O)C(OC(C)=O)C(OC(C)=O)C(/C=N/[C@@H](C)C(=O)O)OC(C)=O)ccc2c1 (stereo partly specified) , reported t1/2: 15

All figures here come from ChEMBL document CHEMBL3045532.
